Tested on: U-251
Experiment: NCI tumour cell line growth inhibition, 48 h
Calls of active or inactive are those of the source. No stated cut-off is given here; in the data, active = GI50 up to about 1.1 µM and inactive = higher.
METRIC NAME: GI50

{"columns": ["COMPOUND", "METRIC NAME", "READING"],
 "data": [
  ["COc1c2c(c3c(c1C1OC(C)[C@@H](C)O1)CC(C)(C)O3)C(=O)c1ccccc1C2=O (stereo not given in full)", "GI50", "36.6 µM (inactive)"],
  ["COC(=O)c1cc2/c(=N/O)c3ccccc3sc2o1", "GI50", "> 100 µM (inactive)"],
  ["COc1c(C)c2c(c(=O)c3c(C)cccc3n2C)c2c1c(=O)c1c(C)cccc1n2C", "GI50", "> 10 µM (inactive)"],
  ["CCCCCCCC(=O)OCC(COC(=O)C(C)(C)C)OC(=O)Cc1ccccc1 (stereo not given)", "GI50", "> 100 µM (inactive)"],
  ["Cc1cc(S(=O)(=O)NC2=Nc3cccc(F)c3CN2)c(S)cc1Cl", "GI50", "44.5 µM (inactive)"]
]}

---

Tested on: DMS-114
Assay: NCI tumour cell line growth inhibition, 48 h
Calls of active or inactive are those of the source. Cut-off read from the data, not from the text of the source: active = GI50 up to about 1.1 µM and inactive = higher.
Outcome codes: active, inactive

{"columns": ["MOLECULE", "LABEL"],
 "data": [
  ["CCCCCCc1cn([C@H]2C[C@H](O)[C@@H](CO)O2)c(=O)[nH]c1=O", "inactive"],
  ["CCCCCCCCCCC/C(=N/O)c1ccc(O)c2ncccc12", "inactive"],
  ["CS/C(=N\\C(=S)N(C)C)N(c1ccccc1)c1nc(N(C)C)s[s+]1", "active"],
  ["O=C(Cc1ccccc1)C(c1ccccc1)S(=O)(=O)c1ccccc1 (stereo not drawn)", "inactive"],
  ["Cc1nc2c(o1)/C(=N\\c1ccccc1)c1ccccc1/C2=N/c1ccccc1", "inactive"],
  ["COc1c2c(c3c(c1C1OC(C)[C@@H](C)O1)CC(C)(C)O3)C(=O)c1ccccc1C2=O (stereo partly drawn)", "inactive"],
  ["Cc1cc(O)c2c(c1)C(=O)c1cc(O)cc(O)c1C2=O", "inactive"],
  ["Cc1ccccc1Nc1nc2c(s1)C(=O)c1ccccc1C2=O", "inactive"],
  ["CCCCCCCCOC(CO)CO", "inactive"],
  ["O=C1CNNC(Cn2nc(-c3ccccc3)c3ccccc3c2=O)=N1", "inactive"],
  ["Cc1cc(Cl)cc2c1NC(=O)C2(O)C(C)C(=O)c1ccc(Cl)cc1 (stereo not drawn)", "inactive"],
  ["COc1cc2c3c(c1OC)-c1ccccc1C(C(O)c1ccccc1)C3N(C)CC2 (stereo not drawn)", "inactive"],
  ["Cc1cccc(C(C)C)c1NC(=O)CC1C(=O)Nc2ccccc2S1(=O)=O (stereo not drawn)", "inactive"],
  ["C=CCOC1CC(n2cnc3c(N)ncnc32)OC1CO (stereo not drawn)", "inactive"],
  ["CCOc1ccc2c(c1)[n+]([O-])c(-c1ccccc1Cl)c(N)[n+]2[O-]", "inactive"],
  ["CC1(c2cc3c(cc2Br)OCO3)SCCCS1", "inactive"],
  ["Cc1ccc(S(=O)(=O)c2c(N)c3nccn3c3nc4ccccc4nc23)cc1", "inactive"],
  ["COc1cc2cc3c4c(cc(OC)c(OC)c4c2cc1OC)CCN3C(=O)CCC(=O)O", "inactive"],
  ["CCC12CCCNC1c1c(n(C)c3ccccc13)C(C(=O)OC)C2 (stereo not drawn)", "inactive"],
  ["CCCC/C=C1\\CCC(CN2CCOCC2)C1=O (stereo not drawn)", "inactive"],
  ["O=C(O)/C=C/c1ccncc1", "inactive"],
  ["O=C(/C=C\\c1cccc2ccccc12)c1cccs1", "inactive"],
  ["CSc1nc2c(nc(N)n2C2OCC(O)C(O)C2O)c(=O)n1C (stereo not drawn)", "inactive"]
]}

---

Test system: U-251
Experiment: NCI tumour cell line growth inhibition, 48 h
Active and inactive are the calls of the source. Rule as the data show it: active = GI50 up to about 1.1 µM and inactive = higher.
METRIC NAME: GI50

{"columns": ["COMPOUND", "READING"],
 "data": [
  ["COc1cc2c3c(c1OC)-c1ccccc1C(C(O)c1ccccc1)C3N(C)CC2 (configuration not stated)", "30 µM (inactive)"],
  ["CN(C)CCNC1=Nc2ccccc2C(=S)N2CSCC12 (configuration not stated)", "> 100 µM (inactive)"],
  ["Cc1ccc(S(=O)(=O)c2c(N)c3nccn3c3nc4ccccc4nc23)cc1", "> 100 µM (inactive)"],
  ["NC(CO)c1ccc(OCc2ccccc2)cc1 (configuration not stated)", "> 100 µM (inactive)"],
  ["O=C(O)C(Cl)(c1ccccc1)c1ccccc1", "> 100 µM (inactive)"],
  ["CC1(C)CCC[C@]2(C)[C@@H]1CC[C@@]13O[C@@H]1C1=C(CO)C(=O)OC1=C[C@@H]23", "24.4 µM (inactive)"],
  ["Cc1cn(C2CC(/[N+]([O-])=N\\Nc3ccc([N+](=O)[O-])cc3)C(CO)O2)c(=O)[nH]c1=O (configuration not stated)", "> 100 µM (inactive)"]
]}

---

Form field: GI50 (one value per entry).
System: NCI/ADR-RES
Test: NCI tumour cell line growth inhibition, 48 h
The source made the active and inactive calls. Cut-off read from the data, not from the text of the source: active = GI50 up to about 1.1 µM and inactive = higher.

{"columns": ["COMPOUND", "GI50"],
 "data": [
  ["O=C(c1ccccc1)C1C[C@H]2CO[C@H](c3ccccc3)N2C1=O (some centres undefined)", "> 100 µM (inactive)"],
  ["O=C(O)c1c(CC(Cc2ccccc2)C(=O)O)ccc2c1CCC2 (centres undefined)", "> 100 µM (inactive)"],
  ["CC(C)=CCC[C@@H](C)C1=C(O)C(=O)C(C)=C(Nc2ccccc2Cl)C1=O", "1.82 µM (inactive)"],
  ["CCCCCCn1c(SC)nc(COC(=O)NC)c1COC(=O)NC", "25.5 µM (inactive)"],
  ["COc1ccc(NC(=O)CC(=O)N2N=C(C)C(/N=N/c3ccc(C(=O)O)cc3)C2=O)cc1 (centres undefined)", "> 100 µM (inactive)"],
  ["O=C(Nc1ccccc1C(=O)O)C(=Cc1ccccc1O)NC(=O)c1ccccc1", "> 100 µM (inactive)"],
  ["CCCCCCCCCCCCC(O)C1CCC(C(O)CCCCCCC(O)CCCCCCCC2=CC(C)OC2=O)O1 (centres undefined)", "1.84 µM (inactive)"],
  ["COc1cc2c(cc1OCCCCCCCCN1C(=O)c3cccc4cccc(c34)C1=O)N=C[C@@H]1CCCN1C2=O", "3.27 µM (inactive)"],
  ["CCCCCCC(O)C(=O)OC1C2C(CC1(C)C)C(O)C13OC1C(O)C1(CO1)[C@@]23C (some centres undefined)", "> 100 µM (inactive)"]
]}

---

Tested on: HOP-18
Assay: NCI tumour cell line growth inhibition, 48 h
Active and inactive are the calls of the source. Cut-off read from the data, not from the text of the source: active = GI50 up to about 1.1 µM and inactive = higher.
Outcome codes: active, inactive

{"columns": ["COMPOUND", "LABEL"],
 "data": [
  ["CCCCCCCC/C=C\\CCCCCCCC(=O)NCCN(CCN)C(=O)CCCCCCC/C=C\\CCCCCCCC", "inactive"],
  ["COC(=O)CC(=O)C[P+](c1ccccc1)(c1ccccc1)c1ccccc1", "inactive"],
  ["COC(=O)C1CCC[C@H]2C(CO)=C(C)C(=O)[C@@H]12 (some centres not stated)", "inactive"],
  ["CSc1nc2c(nc(N)n2C2OCC(O)C(O)C2O)c(=O)n1C (configuration not stated)", "inactive"],
  ["OC1C2C=CCC1CCC2 (configuration not stated)", "inactive"],
  ["O=C(/C=C\\c1cccc2ccccc12)c1cccs1", "inactive"],
  ["N#CC(C#N)=Cc1ccc(C(O)P(=O)(O)O)cc1 (configuration not stated)", "inactive"],
  ["N=C(N)NS(=O)(=O)c1ccc(Nc2c3ccccc3nc3c(C(=O)N4CCN(CCO)CC4)cccc23)cc1", "inactive"],
  ["CCCCCCc1cn([C@H]2C[C@H](O)[C@@H](CO)O2)c(=O)[nH]c1=O", "inactive"],
  ["CCOc1ccc2c(c1)[n+]([O-])c(-c1ccccc1Cl)c(N)[n+]2[O-]", "inactive"],
  ["Fc1cccc(C2SCc3nc4ccccc4n32)c1F (configuration not stated)", "inactive"],
  ["NC(CO)c1ccc(OCc2ccccc2)cc1 (configuration not stated)", "inactive"],
  ["O=C1Nc2ccc(Br)cc2/C1=N/Nc1ccc([N+](=O)[O-])cc1", "inactive"],
  ["CCCC/C=C1\\CCC(CN2CCOCC2)C1=O (configuration not stated)", "active"],
  ["COc1ccccc1NC(=O)c1nc2ccc([N+](=O)[O-])cc2nc1C", "active"],
  ["CCCCNC(=O)C1C2CCC(O2)C1C(=O)O (configuration not stated)", "inactive"],
  ["COC(=O)C1=C(O)C(O)=C(C(=O)OC)C1", "inactive"]
]}
